Here, each record is paired with measured Ki data.
Target: Serotonin 3 (5-HT3) receptor (Rattus norvegicus, UniProt P35563+Q9JJ16)
Sequence (P35563 whole entry): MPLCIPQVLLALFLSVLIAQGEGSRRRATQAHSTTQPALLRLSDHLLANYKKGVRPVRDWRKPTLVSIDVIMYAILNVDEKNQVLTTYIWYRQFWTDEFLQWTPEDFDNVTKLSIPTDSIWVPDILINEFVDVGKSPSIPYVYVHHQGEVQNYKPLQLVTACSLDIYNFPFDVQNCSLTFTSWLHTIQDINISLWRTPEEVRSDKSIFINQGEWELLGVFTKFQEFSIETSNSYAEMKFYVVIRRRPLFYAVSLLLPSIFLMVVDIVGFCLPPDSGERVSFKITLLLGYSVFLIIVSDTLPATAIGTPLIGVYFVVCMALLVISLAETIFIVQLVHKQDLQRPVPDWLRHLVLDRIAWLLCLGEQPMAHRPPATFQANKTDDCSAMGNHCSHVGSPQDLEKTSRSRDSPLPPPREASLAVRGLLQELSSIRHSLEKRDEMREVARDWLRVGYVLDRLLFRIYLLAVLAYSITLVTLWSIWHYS
Sequence (Q9JJ16 whole entry): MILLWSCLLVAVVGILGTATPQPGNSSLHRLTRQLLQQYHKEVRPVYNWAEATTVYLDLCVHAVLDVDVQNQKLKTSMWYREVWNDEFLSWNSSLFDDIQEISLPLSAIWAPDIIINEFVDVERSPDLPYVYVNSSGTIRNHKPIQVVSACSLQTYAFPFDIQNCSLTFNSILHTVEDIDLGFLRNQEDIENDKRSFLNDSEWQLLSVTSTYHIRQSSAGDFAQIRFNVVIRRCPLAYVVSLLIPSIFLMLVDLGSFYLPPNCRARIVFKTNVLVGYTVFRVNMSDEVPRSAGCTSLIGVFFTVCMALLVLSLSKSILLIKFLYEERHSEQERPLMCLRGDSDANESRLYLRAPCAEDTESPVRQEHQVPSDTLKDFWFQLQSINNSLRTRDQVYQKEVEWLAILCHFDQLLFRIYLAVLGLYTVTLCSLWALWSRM
Assay: Compound was evaluated for its ability to displace [3H]quipazine binding to 5-hydroxytryptamine 3 receptor sites in NG 108-15.
Assay type: protein-complex assay
Dear colleague, please return just the value in nM, with no unit written.

Sample CN1C2CCC1CC(OC(=O)c1ccnc3ccccc13)C2 (configuration not stated) — what was its Ki?
7.1

Shifting focus to the compound that follows.
Sample CN1C2CCC1CC(OC(=O)c1cc(O)nc3ccccc13)C2 (configuration not stated) — what was its Ki?
4.4

* * *

Biological target: Serotonin 3 (5-HT3) receptor (Rattus norvegicus, UniProt P35563+Q9JJ16)
Experiment: Ability to displace [3H]quipazine binding to 5-hydroxytryptamine 3 receptor sites in NG 108-15.
Type: protein-complex assay
Here, each record is paired with measured pKi data.
// scale note: pKi = -log10(conc_M); give the bare number

Consider the reported pKi for these molecules:
Sample CCn1c(=O)cc(C(=O)OC2CC3CCC(C2)N3C)c2ccccc21 (configuration not stated) — what was its pKi?
8.96

Sample CC(C)COc1cc(C(=O)OC2CC3CCC(C2)N3C)c2ccccc2n1 (configuration not stated) — what was its pKi?
9.36

Sample CC(C)CCn1c(=O)cc(C(=O)OC2CC3CCC(C2)N3C)c2ccccc21 (configuration not stated) — what was its pKi?
8.82

Sample CC(C)Oc1cc(C(=O)OC2CC3CCC(C2)N3C)c2ccccc2n1 (configuration not stated) — what was its pKi?
9.51

Sample CN1C2CCC1CC(OC(=O)c1cc(=O)n(Cc3ccccc3)c3ccccc13)C2 (configuration not stated) — what was its pKi?
8.89

Sample CCCCN1C(=O)CC(C(=O)OC2CC3CCC(C2)N3C)c2ccccc21 (configuration not stated) — what was its pKi?
8.06

Sample CCCCn1c(=O)c(CC)c(C(=O)OC2CC3CCC(C2)N3C)c2ccccc21 (configuration not stated) — what was its pKi?
6.80

Sample CCCCCCn1c(=O)cc(C(=O)OC2CC3CCC(C2)N3C)c2ccccc21 (configuration not stated) — what was its pKi?
8.96

---
Sample CCCn1c(=O)cc(C(=O)NC2CC3CCC(C2)N3C)c2ccccc21 (configuration not stated) — what was its pKi?
7.17

Sample CCCCn1c(=O)cc(C(=O)OC2CC3CCC(C2)N3C)c2ccccc21 (configuration not stated) — what was its pKi?
9.17

Sample CCCOc1cc(C(=O)NC2CC3CCC(C2)N3C)c2ccccc2n1 (configuration not stated) — what was its pKi?
7.38

Sample CN1C2CCC1CC(OC(=O)c1cc(=O)n(C)c3ccccc13)C2 (configuration not stated) — what was its pKi?
8.59

Sample CC(C)Cn1c(=O)cc(C(=O)OC2CC3CCC(C2)N3C)c2ccccc21 (configuration not stated) — what was its pKi?
9.33

Sample CCCCCOc1cc(C(=O)OC2CC3CCC(C2)N3C)c2ccccc2n1 (configuration not stated) — what was its pKi?
9.07

* * *

Target: Serotonin 3 (5-HT3) receptor (Rattus norvegicus) (UniProt P35563+Q9JJ16)
Assay: Inhibition of 5-HT induced bradycardia [Benzold-Jarisch (BJ) reflex test] in rats at 5 min administered intravenously
Assay type: functional
Doc: threshold 7 mg/kg (exclusive). Items with ED50 beneath it return MET; others return NOT MET.

Hello, is ED50 of the following compound strictly smaller than 7 mg/kg? CC(C)n1c(=O)cc(C(=O)OC2CC3CCC(C2)N3C)c2ccccc21 (stereo unspecified)
MET

---
Hello, is ED50 of the following compound strictly smaller than 7 mg/kg? CC(C)CCn1c(=O)cc(C(=O)OC2CC3CCC(C2)N3C)c2ccccc21 (stereo unspecified)
MET

Hello, is ED50 of the following compound strictly smaller than 7 mg/kg? CCCOc1cc(C(=O)OC2CC3CCC(C2)N3C)c2ccccc2n1 (stereo unspecified)
MET

Hello, is ED50 of the following compound strictly smaller than 7 mg/kg? CCCCCCOc1cc(C(=O)OC2CC3CCC(C2)N3C)c2ccccc2n1 (stereo unspecified)
NOT MET

Hello, is ED50 of the following compound strictly smaller than 7 mg/kg? CCOc1cc(C(=O)OC2CC3CCC(C2)N3C)c2ccccc2n1 (stereo unspecified)
MET

Hello, is ED50 of the following compound strictly smaller than 7 mg/kg? CN1C2CCC1CC(OC(=O)c1cc(=O)n(-c3ccccc3)c3ccccc13)C2 (stereo unspecified)
MET

* * *

Here, each record is paired with measured Ki data.
Target: Serotonin 3 (5-HT3) receptor (Rattus norvegicus, UniProt P35563+Q9JJ16)
Sequence (P35563 whole entry): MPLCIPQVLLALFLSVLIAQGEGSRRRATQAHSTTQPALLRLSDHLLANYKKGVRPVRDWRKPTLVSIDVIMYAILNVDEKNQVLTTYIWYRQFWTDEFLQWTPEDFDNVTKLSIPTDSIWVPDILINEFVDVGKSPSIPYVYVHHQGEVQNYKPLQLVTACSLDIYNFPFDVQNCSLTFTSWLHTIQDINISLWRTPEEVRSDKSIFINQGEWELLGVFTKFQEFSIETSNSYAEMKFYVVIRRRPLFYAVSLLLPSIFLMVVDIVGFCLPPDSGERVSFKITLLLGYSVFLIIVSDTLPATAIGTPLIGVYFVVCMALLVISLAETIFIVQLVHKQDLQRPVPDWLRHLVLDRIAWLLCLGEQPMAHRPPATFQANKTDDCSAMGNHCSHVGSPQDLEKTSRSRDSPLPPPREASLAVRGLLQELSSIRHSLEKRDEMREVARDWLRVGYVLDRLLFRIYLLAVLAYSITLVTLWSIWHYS
Sequence (Q9JJ16 whole entry): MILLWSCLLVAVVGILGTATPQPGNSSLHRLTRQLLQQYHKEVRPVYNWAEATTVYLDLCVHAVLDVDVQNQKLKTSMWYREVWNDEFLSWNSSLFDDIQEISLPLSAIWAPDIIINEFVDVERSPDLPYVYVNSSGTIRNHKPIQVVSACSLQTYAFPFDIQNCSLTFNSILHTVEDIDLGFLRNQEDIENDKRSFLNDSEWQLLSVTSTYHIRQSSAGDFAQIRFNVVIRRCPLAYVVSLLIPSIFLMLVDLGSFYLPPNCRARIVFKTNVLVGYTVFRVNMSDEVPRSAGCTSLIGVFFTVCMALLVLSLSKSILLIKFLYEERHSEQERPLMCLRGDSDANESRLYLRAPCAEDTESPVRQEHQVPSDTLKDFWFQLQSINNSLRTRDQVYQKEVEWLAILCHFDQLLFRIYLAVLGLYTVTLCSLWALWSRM
Experiment: Ability to displace [3H]quipazine binding to 5-hydroxytryptamine 3 receptor sites in NG 108-15.
Type: protein-complex assay
Dear colleague, please return just the value in nM, with no unit written.

Consider the reported Ki for these molecules:
Sample CCCCn1c(=O)cc(C(=O)OC2CC3CCC(C2)N3C)c2cc(C)ccc21 (stereo not drawn) — what was its Ki?
44

Sample CCCCOc1cc(C(=O)NC2CC3CCC(C2)N3C)c2ccccc2n1 (stereo not drawn) — what was its Ki?
19

Sample CCCCn1c(=O)cc(C(=O)NC2CC3CCC(C2)N3C)c2ccccc21 (stereo not drawn) — what was its Ki?
60

Shifting focus to the molecule that follows.
Sample CCOc1cc(C(=O)OC2CC3CCC(C2)N3C)c2ccccc2n1 (stereo not drawn) — what was its Ki?
0.88
